The entries below are paired with their reported IC50.
- method.description: Inhibition of yeast alpha-glucosidase type 3 using p-nitrophenyl-alpha-D-glucopyranoside as substrate preincubated with substrate for 5 mins prior to enzyme challenge for 30 mins by absorbance analysis
- Parameters: species or system Saccharomyces cerevisiae
Kindly provide the numeric value in µM only, without the unit symbol.

Check out these entries, answers already filled in.
compound	quantity.unit	measured.result
COc1cccc(/C=C/C(=O)c2ccc(N)cc2)c1	µM	93
O=[N+]([O-])c1cccc(-n2cc(-c3ccccc3)nn2)c1	µM	520
OC1(c2cn(-c3ccc(Br)cc3)nn2)CCCCC1	µM	325
CCCCCCCCCCCCCCCCn1cc(C2(O)CCCCC2)nn1	µM	1190
N#Cc1cc([N+](=O)[O-])ccc1-n1cc(C2(O)CCCCC2)nn1	µM	49.7

# next compound below
Provide measured IC50 value, entry: O=C(/C=C/c1ccccc1)c1ccccc1O [2'-HYDROXYCHALCONE]
15
